Source: ChEMBL document CHEMBL3046469

Tested on: Botrytis cinerea
Assay: Fungicidal activity against Botryotinia fuckeliana assessed as cucumber gray mold disease control at 125 ppm foliar application […] at 22 +/- 2 degC by preventive manner
Assay type: functional
recorded metric: Activity (%)
Enter your answer as a number in %; do not include the unit.

structure | output unit | Activity
CNC(=O)/C(=N/OC)c1ccccc1COc1c(Cl)cccc1Cl | % | 90

Now examine the next entry.
So what's the measured Activity for this one? CO/N=C(/C(=O)NOC)c1ccccc1COc1cc(C)ccc1C 90

* * *

Tested on: Botrytis cinerea
Test: Fungicidal activity against Botryotinia fuckeliana assessed as cucumber gray mold disease control at 125 ppm foliar application […] at 22 +/- 2 degC by preventive manner
Type: functional
recorded metric: Activity

Illustrative cases are given below, each with its answer.
structure | data value
CNC(=O)/C(=N/OC)c1ccccc1COc1ccc(/C=C\c2ccccc2)cc1 | <90%
CNC(=O)/C(=N\OC)c1ccccc1COc1ccccc1 | <90%
CNC(=O)/C(=N/OC)c1ccccc1COc1ccccc1OC(C)C | <90%
CNC(=O)/C(=N\OC)c1ccccc1COc1ccc(Cl)cc1 | <90%
CNC(=O)/C(=N/OC)c1ccccc1COc1c(C)cccc1C | 90%

So what's the measured Activity for this one? CNC(=O)/C(=N\OC)c1ccccc1COc1cccc(OC(C)C)c1 90%

So what's the measured Activity for this one? CO/N=C(/C(=O)N(C)C)c1ccccc1COc1cc(C)ccc1C 90%

So what's the measured Activity for this one? CO/N=C(/C(=O)NN)c1ccccc1COc1cc(C)ccc1C <90%

So what's the measured Activity for this one? CNC(=O)/C(=N/OC)c1ccccc1COc1c(C)ccc(C)c1C <90%

So what's the measured Activity for this one? CNC(=O)/C(=N/OC)c1ccccc1COc1c(Cl)ccc(Cl)c1Cl 90%

So what's the measured Activity for this one? C#CCOc1ccccc1OCc1ccccc1/C(=N\OC)C(=O)NC <90%

* * *

Test system: Botrytis cinerea
Assay: Fungicidal activity against Botryotinia fuckeliana assessed as cucumber gray mold disease control at 7.8 ppm foliar application […] at 22 +/- 2 degC by preventive manner
Format: functional
recorded metric: Activity (%)
Enter your answer as a number in %; do not include the unit.

Illustrative cases are given below, each with its answer.
structure | study target | Activity / %
CNC(=O)/C(=N/OC)c1ccccc1COc1ccccc1Cl | Botrytis cinerea | 90
CNC(=O)/C(=N/OC)c1ccccc1COc1cc(Cl)c(Cl)cc1Cl | Botrytis cinerea | 90
CNC(=O)/C(=N/OC)c1ccccc1COc1ccc(C(F)(F)F)cc1 | Botrytis cinerea | 90
CNC(=O)/C(=N/OC)c1ccccc1COc1ccc(C)cc1 | Botrytis cinerea | 90
CNC(=O)/C(=N/OC)c1ccccc1COc1ccc(C)c(C)c1 | Botrytis cinerea | 90

Which Activity is reported with Botrytis cinerea for this entry: CNC(=O)/C(=N/OC)c1ccccc1COc1ccc(C(=O)c2ccccc2)cc1 ? 90

Which Activity is reported with Botrytis cinerea for this entry: CNC(=O)/C(=N/OC)c1ccccc1COc1ccc(F)cc1 ? 90

Which Activity is reported with Botrytis cinerea for this entry: CNC(=O)/C(=N/OC)c1ccccc1COc1cccc(Br)c1 ? 90

* * *

Test system: Botrytis cinerea
Test: Fungicidal activity against Botryotinia fuckeliana assessed as cucumber gray mold disease control at 7.8 ppm foliar application […] at 22 +/- 2 degC by preventive manner
Format: functional
recorded metric: Activity (%)
Enter your answer as a number in %; do not include the unit.

Illustrative cases are given below, each with its answer.
structure | study target | data value
CNC(=O)/C(=N/OC)c1ccccc1COc1ccc(OC(C)C)cc1 | Botrytis cinerea | 90
CNC(=O)/C(=N/OC)c1ccccc1COc1ccc(Br)cc1 | Botrytis cinerea | 90

Now examine the next entry.
So what's the measured Activity for this one? CNC(=O)/C(=N/OC)c1ccccc1COc1cc(Cl)cc(Cl)c1 90
